Tested on: SW480
Experiment: cell viability (CellTiter-Glo) relative to plate median (fraction of plate median); higher = more viable cells
Settings: 5 µM; treatment time 24 h; reporter: 7TFP
Please note: cell viability exactly at 1 is class 0. Only values below 1 get class 1.

COc1ccc2cc([C@H](C)C(=O)O)ccc2c1 : class 0
COc1cc(C)c(C(=O)Oc2cc(C)c(C(=O)O)c(O)c2C)c(O)c1C=O : class 0
CC(=O)N[C@@H](C=O)[C@@H](O)[C@H](O)[C@H](O)CO : class 1

*Q* cell viability under 1? Item: CC(=O)Oc1cc(C)c2c(c1C=O)Oc1c(c(C)c(OC(C)=O)c3c1C(OC(C)=O)OC3=O)OC2=O (stereo not given)
*A* class 0

*Q* Entry to check: Cc1ccc(C(C)C)cc2c(C)ccc1-2
*A* class 0

*Q* Same question for O=CNc1ccccc1C(=O)O please.
*A* class 1

*Q* Cool, now COc1ccc2cc(CCC(C)=O)ccc2c1
*A* class 1

*Q* Okay, and CC(CCC(=O)O)[C@H]1CCC2C3C[C@H](O)[C@@H]4C[C@H](O)CC[C@]4(C)C3CC[C@@]21C (stereo partly drawn) [alpha-HYDROXYDEOXYCHOLIC ACID] ?
*A* class 0
